- Tested Target: Homeobox protein Hox-A13 (Mus musculus) (UniProt Q62424)
- Sequence (Q62424 whole entry, looked up): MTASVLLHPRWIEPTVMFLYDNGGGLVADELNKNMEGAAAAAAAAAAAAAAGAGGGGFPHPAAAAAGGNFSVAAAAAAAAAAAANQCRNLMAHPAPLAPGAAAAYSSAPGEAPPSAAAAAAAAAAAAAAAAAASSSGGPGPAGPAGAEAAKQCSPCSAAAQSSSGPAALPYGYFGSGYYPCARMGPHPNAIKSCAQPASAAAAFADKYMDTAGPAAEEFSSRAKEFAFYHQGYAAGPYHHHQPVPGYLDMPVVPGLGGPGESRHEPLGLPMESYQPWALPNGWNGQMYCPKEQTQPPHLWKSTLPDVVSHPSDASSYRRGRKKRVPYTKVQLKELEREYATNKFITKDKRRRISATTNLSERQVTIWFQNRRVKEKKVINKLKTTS
- Test: inhibitors of HoxA13-DNA binding, primary screen, biochemical, fluorescence polarization, labeled oligonucleotide (AID 1185)
- Condition Notes: 15 min, higher = more signal, called active from +8 up or from −8 down
Please note: y applies when z-score is -2 or greater, and n applies otherwise.

Field: example entries. Status: answers known.
# Molecule, Label Class
rows = [
    ("CCOC(=O)C[C@H]1[C@H](OC(=O)Cc2ccc3c(c2)OCO3)[C@@H](NC(=O)c2ccc(-c3ccccc3)cc2)c2cc(OCCCO)ccc2N1C(=O)c1ccc2ccccc2n1", "y"),
    ("COc1ccc(C(=O)Nc2ccc(CN3C(=O)[C@@]4(O[C@@H](CCO)[C@H]([Si](C)(C)c5ccc(OC)cc5)[C@H]4C)c4ccccc43)cc2)cc1", "y"),
    ("O=C1OCCC/C=C\\[C@H]2OC34C=CCN(Cn5nnc6ccccc65)C(=O)[C@H]3N(CCCCCCO)C(=O)[C@@H]4C12 (stereo partly drawn)", "n"),
]

Query: Is z-score at least -2? Consider `COC(=O)C(CC#Cc1ccc2c(c1)[C@]1(C(=O)N2)[C@H](c2ccc(O)cc2)N2[C@H](c3ccccc3)[C@H](c3ccccc3)OC(=O)[C@H]2[C@@H]1C(=O)Nc1nc2ccccc2s1)C(=O)OC`
Reply: y

Query: Is z-score at least -2? Consider `COc1ccc([Si](C)(C)[C@H]2[C@H](CCn3cc([C@H](O)c4ccccc4)nn3)O[C@@]3(C(=O)N(Cc4cccc(N5CCOC5=O)c4)c4ccccc43)[C@@H]2C)cc1`
Reply: n

###

- Test: CREB reporter modulators without forskolin, primary screen, cell-based, PC12, CRE-LacZ reporter, unstimulated (AID 1145)
- Condition Notes: no forskolin, luminescence, 4.5 h, higher = more signal, called active from +8 up or from −8 down
The source made the active and inactive calls.
Endpoint Label: z-score

# Molecule Smiles, z-score
data = [
    ("COc1ccc(C(=O)Nc2ccc(CN3C(=O)[C@@]4(O[C@@H](CCn5cc([C@H](O)c6ccccc6)nn5)[C@H]([Si](C)(C)c5ccc(OC)cc5)[C@H]4C)c4ccccc43)cc2)cc1", "2.4 (inactive)"),
    ("COC(=O)[C@@]1(Cc2ccccc2)[C@H]2c3cc(C(=O)N4CCCC4)n(CC4CC4)c3C[C@H]2CN1C(=O)c1ccccc1", "0.587 (inactive)"),
]

We now examine a further molecule.
z-score measured on `NCCCCCNC(=O)[C@@H]1C[C@@H]2C(=O)N[C@@H](Cc3ccccc3)C(=O)N2[C@@H]1c1cccc(OCCO)c1` = 0.415 (inactive)

###

- Tested Target: Dihydroorotate dehydrogenase (quinone), mitochondrial (Plasmodium falciparum (isolate 3D7))
- Test: PfDHODH enzyme inhibitors, primary screen, biochemical, C-terminal His tag, absorbance 600 nm (AID 1175);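 further: recombinant parasite enzyme with a five histidine tag at its C terminus; test concentration not given here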
- Condition Notes: DCIP absorbance 600 nm, higher = more signal, called active from +8 up or from −8 down
Endpoint Label: composite z-score
# respond with the number and nothing more

# Molecule, Obs Value
records = [
    ("COCCOC(=O)N1C(=O)[C@@]2(c3cc(C#CCCO)ccc31)[C@H](C(=O)Nc1nc3ccccc3s1)[C@H]1C(=O)O[C@H](c3ccccc3)[C@H](c3ccccc3)N1[C@@H]2c1ccc(OCCO)cc1", -0.944),
]

composite z-score measured on `CN(C)C(=O)[C@@]1(Cc2ccccc2CN=[N+]=[N-])N=C(c2ccc(OCCCO)cc2)O[C@H]1c1ccccc1` = 1.12

composite z-score measured on CCOc1cc(C(O)C2C=CC3C(=O)N(c4ccccc4)C(=O)C3N2Nc2ccccc2)ccc1O (centres undefined) = 0.392

composite z-score measured on O=C1OCC=C[C@H]2OC34C=CCN(c5ccc6ccccc6c5)C(=O)[C@H]3N(CCCCCCO)C(=O)[C@@H]4[C@@H]12 (some centres undefined) = -1.24

composite z-score measured on `C=C/C=C/[C@H]1C(=C)CN([C@@H](Cc2ccccc2)C(=O)OC)[C@@H]1[C@H](O)Cc1ccccc1` = -1.09

composite z-score measured on `C=CCOC(=O)[C@H]1[C@@H]2C(=O)O[C@@H](c3ccccc3)[C@@H](c3ccccc3)N2[C@@H](c2ccc(OCCOC(=O)[C@H]3C[C@H]4C(=O)N5CCC[C@H]5C(=O)N4[C@H]3c3ccc(O)cc3)cc2)[C@]12C(=O)Nc1ccccc12` = -0.391

composite z-score measured on `CC(C)C[C@@H]1NC(=O)[C@@H]2C[C@H](C(=O)NCCCCCN)[C@H](c3cccc(OCCO)c3)N2C1=O` = -1.78

composite z-score measured on `CC[C@@H]1C=C(C(=O)O)[C@H](c2ccco2)N1S(=O)(=O)c1ccc(C)cc1` = 0.267

###

- Test: basal RPMI8226 viability, no added stimulus, profiling panel, cell-based, calcein-AM fluorescence, 48 h, PK04 Diversity Set (AID 1166);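 further: cells grown under basal conditions without added stimulus; test concentration not given here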
- Condition Notes: RPMI8226 myeloma viability, higher = more signal
Could you please mark MET for values of z-score below -0.9 and NOT MET for values at or above it?

Field: example entries. Status: answers known.
# Molecule, Label Class
records = [
    ("CCCCC=C[C@@H](NC(=O)Oc1cccc(C(F)(F)F)c1)c1ccccc1", "MET"),
    ("[N-]=[N+]=NCc1ccccc1C[C@]1(C(=O)N2CCOCC2)N=C(c2ccc(OCCCO)cc2)O[C@H]1c1ccccc1N=[N+]=[N-]", "MET"),
    ("C=CCC(OC(C)=O)[C@@H]1[C@@H](N(Cc2cccc3ccccc23)C(=O)c2ccc(-c3ccccc3)cc2)c2cc(OCCCO)ccc2N1C(=O)Cc1ccc(OC)cc1 (stereo not given in full)", "NOT MET"),
    ("O=C1O[C@H](c2ccccc2)[C@H](c2ccccc2)N2[C@H]1[C@@H](C(=O)N1CCN(c3ncccn3)CC1)[C@]1(C(=O)Nc3ccc(C#CC4=CCCCC4)cc31)[C@H]2c1ccc(O)cc1", "MET"),
    ("COc1ccc(C(=O)O[C@H]2CC[C@]3(C)C4=C(CCC3C2(C)C)[C@]2(C)CC[C@H]([C@H](C)CCCC(C)C)[C@@]2(C)CC4)cc1 (stereo not given in full)", "NOT MET"),
]

Shift focus to the following entry.
Query: Does the reported z-score of `C=CCNC(=O)[C@H]1[C@@H]2C(=O)O[C@@H](c3ccccc3)[C@@H](c3ccccc3)N2[C@@H](c2ccc(OCCO)cc2)[C@]12C(=O)Nc1ccc(C#CC3=CCCCC3)cc12` stay below -0.9?
Reply: MET

###

Quick reference for composite z-score among some compounds
- Tested Target: Neurogenic locus notch homolog protein 3 (Homo sapiens)
- Test: NOTCH3 binders on small-molecule microarray, primary screen, biochemical, 635/667 nm fluorescence (AID 1096)
- Condition Notes: NOTCH3 binding, 635 nm fluorescence, higher = more signal
# respond with the number and nothing more

// below: answered compounds
# Compound, composite z-score
data = [
    ("CC(C)N1C(=O)[C@@]2(Cc3ccccc31)c1ccccc1C(=O)N(C1CCCCC1)[C@H]2c1ccc(CO)cc1", 0.79),
    ("COCCOC(=O)N1C(=O)[C@@]2(c3cc(C#CCCO)ccc31)[C@H](C(=O)N1CCN(c3ncccn3)CC1)[C@H]1C(=O)O[C@H](c3ccccc3)[C@H](c3ccccc3)N1[C@@H]2c1ccccc1OCCO", 0.846),
    ("O=C(NCc1ccc(F)cc1)[C@H]1C[C@H]2C(=O)N[C@@H](Cc3ccccc3)C(=O)N2[C@H]1c1ccc(O)cc1", -0.75),
    ("COc1ccc(CCN2C(=O)[C@@]3(Cc4ccccc42)c2ccccc2C(=O)N(Cc2ccccc2C(F)(F)F)[C@H]3c2ccc(CO)cc2)cc1", -0.39),
    ("CC(C)C[C@H]1NC(=O)[C@@]23C(=O)N[C@@H](Cc4ccccc4)C2[C@H](C)[C@@]2(C)O[C@H]2C3/C=C/C/C=C\\CNC(=O)[C@H](Cc2ccccc2)NC1=O (stereo partly specified)", 0.937),
]

We now examine a further compound.
composite z-score measured on `CN(C)CCCNC(=O)[C@@]1(c2ccc([N+](=O)[O-])cc2)CC(=O)N(C2CCCCC2)[C@@H]1c1ccc(CO)cc1` = 0.444

###

- System: Chordin-like protein 2 (CHRDL2)
- Test: CHRDL2 small-molecule binders, primary screen, biochemical, small-molecule microarray, 635 nm fluorescence (AID 1126);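 further: printed compound slides probed with Chrdl2 protein at 4 µg/mL for 1 h at 4 C; score merges 667 nm emission intensity with signal to noise over three replicate slides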
- Condition Notes: small-molecule microarray binding, fluorescence 635 nm; higher = more signal
Endpoint Label: composite z-score
# respond with the number and nothing more

# Molecule Smiles, composite z-score
records = [
    ("CCCC=C(CCC)[C@@H](NS(=O)(=O)c1cccs1)c1ccc(C(=O)OC)cc1", -1.19),
    ("CC(C)(C)C(=O)N[C@@H](c1ccc(Cl)cc1)[C@]1(C)C[C@H]1C1CCCCC1", -0.319),
    ("C[C@@]1([C@@H](NC(=O)c2ccccc2)c2ccc(-c3ccccc3)cc2)C[C@H]1C1CCCCC1", -1.51),
]

composite z-score measured on `O=C1C[C@]2(c3ccc([N+](=O)[O-])cc3)C(=O)N(CCN3CCOCC3)c3cc(CO)ccc3[C@H]2N1C1CCCCC1` = -0.337

composite z-score measured on `COc1ccc([Si](C)(C)[C@H]2[C@H](CCO)O[C@@]3(C(=O)N(Cc4ccc(N5C(=O)COc6ccccc65)cc4)c4ccccc43)[C@@H]2C)cc1` = -1.13

composite z-score measured on `COc1ccc([Si](C)(C)[C@H]2[C@H](CCO)O[C@@]3(C(=O)N(C)c4c(Br)cc(C)cc43)[C@@H]2C)cc1` = 0.344

composite z-score measured on `[N-]=[N+]=Nc1ccccc1C[C@]1(C(N)=O)N=C(c2ccc(OCCCO)cc2)O[C@H]1c1ccccc1` = -1.18

composite z-score measured on `Cc1ccc(S[C@]2(C(=O)NC(C)C)CC(=O)N(Cc3ccccc3Cl)[C@@H]2c2ccc(CO)cc2I)cc1` = -0.793
